Test system: Staphylococcus epidermidis
Assay: Antibacterial activity against Staphylococcus epidermidis after 24 hr by two-fold serial dilution method
Assay type: functional
readout.type: MIC (µg/mL)

What MIC value was documented for this compound, CC1COc2c(N3CCN(C)CC3)c(F)cc3c(=O)c(C(=O)N/N=C/c4ccccc4)cn1c23 (stereo not given) ? 0.25

What MIC value was documented for this compound, CC1COc2c(N3CCN(C)CC3)c(F)cc3c(=O)c(-c4nn(CCC(=O)c5ccccc5)c(=S)o4)cn1c23 (stereo not given) ? 0.5

What MIC value was documented for this compound, CC1COc2c(N3CCN(C)CC3)c(F)cc3c(=O)c(-c4nn(CCC(=O)Cc5cccc([N+](=O)[O-])c5)c(=S)n4N)cn1c23 (stereo not given) ? 0.5

I = CC1COc2c(N3CCN(C)CC3)c(F)cc3c(=O)c(-c4nn(CCC(=O)c5ccc(N)cc5)c(=S)o4)cn1c23 (stereo not given)
II = CC1COc2c(N3CCN(C)CC3)c(F)cc3c(=O)c(C(=O)N/N=C/c4ccccc4O)cn1c23 (stereo not given)
Please tell me which of the two, I or II , has the higher reported MIC value. To answer, give the label that identifies your chosen option. I
(I: 0.5 µg/mL, II: 0.25 µg/mL)

====

Test system: Staphylococcus epidermidis
Assay: Antibacterial activity against Staphylococcus epidermidis after 24 hr by two-fold serial dilution method
Assay type: functional
readout.type: MIC (µg/mL)

What MIC value was documented for this molecule, CC(=O)CCn1nc(-c2cn3c4c(c(N5CCN(C)CC5)c(F)cc4c2=O)OCC3C)oc1=S (stereo not drawn) ? 0.25

What MIC value was documented for this molecule, CC(=O)CCn1nc(-c2cn3c4c(c(N5CCN(C)CC5)c(F)cc4c2=O)OCC3C)n(N)c1=S (stereo not drawn) ? 0.5

What MIC value was documented for this molecule, CC1COc2c(N3CCN(C)CC3)c(F)cc3c(=O)c(C(=O)N/N=C/c4ccccc4Cl)cn1c23 (stereo not drawn) ? 0.5

What MIC value was documented for this molecule, COc1ccc(/C=N/NC(=O)c2cn3c4c(c(N5CCN(C)CC5)c(F)cc4c2=O)OCC3C)cc1 (stereo not drawn) ? 0.25

What MIC value was documented for this molecule, CC1COc2c(N3CCN(C)CC3)c(F)cc3c(=O)c(C(=O)NNC=O)cn1c23 (stereo not drawn) ? 0.25

I = CC1COc2c(N3CCN(C)CC3)c(F)cc3c(=O)c(C(=O)N/N=C/c4cccc([N+](=O)[O-])c4)cn1c23 (stereo not drawn)
II = CC1COc2c(N3CCN(C)CC3)c(F)cc3c(=O)c(-c4nn(CCC(=O)c5ccccc5O)c(=S)n4N)cn1c23 (stereo not drawn)
Smaller MIC value, I vs II ? To answer, give the label that identifies your chosen option. I
(I: 0.25 µg/mL, II: 0.5 µg/mL)

====

Reported zone of inhibition at 100 µg/mL values follow for various compounds
Tested on: Candida albicans
Test: Antifungal activity against Candida albicans at 100 ug/ml after 48 hr […]
Type: functional
Conditions: read-out: IZ
Express the result in mm but write the number alone.

Value wanted: zone of inhibition at 100 µg/mL (Candida albicans) of entry CC1COc2c(N3CCN(C)CC3)c(F)cc3c(=O)c(-c4nn(CCC(=O)Cc5cccc([N+](=O)[O-])c5)c(=S)n4N)cn1c23 (stereo not given) 21

Value wanted: zone of inhibition at 100 µg/mL (Candida albicans) of entry CC1COc2c(N3CCN(C)CC3)c(F)cc3c(=O)c(C(=O)NNC=O)cn1c23 (stereo not given) 23

Value wanted: zone of inhibition at 100 µg/mL (Candida albicans) of entry CC(=O)CCn1nc(-c2cn3c4c(c(N5CCN(C)CC5)c(F)cc4c2=O)OCC3C)n(N)c1=S (stereo not given) 22

Value wanted: zone of inhibition at 100 µg/mL (Candida albicans) of entry CC1COc2c(N3CCN(C)CC3)c(F)cc3c(=O)c(C(=O)N/N=C/c4ccccc4Cl)cn1c23 (stereo not given) 22

// below: zone of inhibition at 100 µg/mL requested for another compound
Value wanted: zone of inhibition at 100 µg/mL (Candida albicans) of entry CC1COc2c(N3CCN(C)CC3)c(F)cc3c(=O)c(C(=O)N/N=C/c4cccc([N+](=O)[O-])c4)cn1c23 (stereo not given) 20

====

System: Klebsiella pneumoniae
Assay: Antibacterial activity against Klebsiella pneumoniae after 24 hr by two-fold serial dilution method
Type: functional
readout.type: MIC (µg/mL)

What MIC value was documented for this molecule, CC1COc2c(N3CCN(C)CC3)c(F)cc3c(=O)c(C(=O)NNC=O)cn1c23 (stereo not drawn) ? 1

What MIC value was documented for this molecule, CC1COc2c(N3CCN(C)CC3)c(F)cc3c(=O)c(C(=O)O)cn1c23 (stereo not drawn) ? 0.06

What MIC value was documented for this molecule, CC(=O)CCn1nc(-c2cn3c4c(c(N5CCN(C)CC5)c(F)cc4c2=O)OCC3C)oc1=S (stereo not drawn) ? 0.12

What MIC value was documented for this molecule, CC1COc2c(N3CCN(C)CC3)c(F)cc3c(=O)c(C(=O)N/N=C/c4cccc([N+](=O)[O-])c4)cn1c23 (stereo not drawn) ? 0.5

What MIC value was documented for this molecule, CC(=O)CCn1nc(-c2cn3c4c(c(N5CCN(C)CC5)c(F)cc4c2=O)OCC3C)n(N)c1=S (stereo not drawn) ? 0.12

What MIC value was documented for this molecule, CC1COc2c(N3CCN(C)CC3)c(F)cc3c(=O)c(-c4nn(CCC(=O)c5ccccc5)c(=S)o4)cn1c23 (stereo not drawn) ? 0.25

What MIC value was documented for this molecule, CC1COc2c(N3CCN(C)CC3)c(F)cc3c(=O)c(C(=O)N/N=C/c4ccccc4)cn1c23 (stereo not drawn) ? 0.25

What MIC value was documented for this molecule, COc1ccc(/C=N/NC(=O)c2cn3c4c(c(N5CCN(C)CC5)c(F)cc4c2=O)OCC3C)cc1 (stereo not drawn) ? 0.5

What MIC value was documented for this molecule, CC1COc2c(N3CCN(C)CC3)c(F)cc3c(=O)c(-c4nn(CCC(=O)Cc5cccc([N+](=O)[O-])c5)c(=S)n4N)cn1c23 (stereo not drawn) ? 0.12

What MIC value was documented for this molecule, CC1COc2c(N3CCN(C)CC3)c(F)cc3c(=O)c(C(=O)N/N=C/c4ccccc4O)cn1c23 (stereo not drawn) ? 1

I = CC1COc2c(N3CCN(C)CC3)c(F)cc3c(=O)c(C(=O)N/N=C/c4ccccc4Cl)cn1c23 (stereo not drawn)
II = CC1COc2c(N3CCN(C)CC3)c(F)cc3c(=O)c(-c4nn(CCC(=O)c5ccc(N)cc5)c(=S)o4)cn1c23 (stereo not drawn)
Smaller MIC value, I vs II ? To answer, give the label that identifies your chosen option. I

====

System: Candida albicans
Assay: Antifungal activity against Candida albicans at 100 ug/ml after 48 hr […]
Type: functional
Details: read-out: IZ
readout.type: zone of inhibition at 100 µg/mL (mm)
Express the result in mm but write the number alone.

Value wanted: zone of inhibition at 100 µg/mL (Candida albicans) of entry CC1COc2c(N3CCN(C)CC3)c(F)cc3c(=O)c(-c4nn(CCC(=O)c5ccccc5O)c(=S)n4N)cn1c23 (stereo not drawn) 21

Value wanted: zone of inhibition at 100 µg/mL (Candida albicans) of entry CC1COc2c(N3CCN(C)CC3)c(F)cc3c(=O)c(C(=O)N/N=C/c4ccccc4)cn1c23 (stereo not drawn) 21

Value wanted: zone of inhibition at 100 µg/mL (Candida albicans) of entry CC1COc2c(N3CCN(C)CC3)c(F)cc3c(=O)c(C(=O)O)cn1c23 (stereo not drawn) 28

Value wanted: zone of inhibition at 100 µg/mL (Candida albicans) of entry COc1ccc(/C=N/NC(=O)c2cn3c4c(c(N5CCN(C)CC5)c(F)cc4c2=O)OCC3C)cc1 (stereo not drawn) 23

Value wanted: zone of inhibition at 100 µg/mL (Candida albicans) of entry CC(=O)CCn1nc(-c2cn3c4c(c(N5CCN(C)CC5)c(F)cc4c2=O)OCC3C)oc1=S (stereo not drawn) 22

Value wanted: zone of inhibition at 100 µg/mL (Candida albicans) of entry CC1COc2c(N3CCN(C)CC3)c(F)cc3c(=O)c(-c4nn(CCC(=O)c5ccccc5)c(=S)o4)cn1c23 (stereo not drawn) 22

Value wanted: zone of inhibition at 100 µg/mL (Candida albicans) of entry CC1COc2c(N3CCN(C)CC3)c(F)cc3c(=O)c(C(=O)N/N=C/c4ccccc4O)cn1c23 (stereo not drawn) 21

Value wanted: zone of inhibition at 100 µg/mL (Candida albicans) of entry CC1COc2c(N3CCN(C)CC3)c(F)cc3c(=O)c(-c4nn(CCC(=O)c5ccc(N)cc5)c(=S)o4)cn1c23 (stereo not drawn) 21
